- TARGET_OR_TEST_SYSTEM: profilin-1 (wild-type) (UniProt P07737 1-140)
- Sequence (P07737 whole entry): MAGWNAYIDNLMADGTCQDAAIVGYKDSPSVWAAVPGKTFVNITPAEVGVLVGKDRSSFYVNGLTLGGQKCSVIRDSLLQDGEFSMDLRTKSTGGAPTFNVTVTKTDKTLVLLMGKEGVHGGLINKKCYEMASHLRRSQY
- PROTOCOL: fluorescence polarisation
Ends that are not written are not given here.
MEASUREMENT_LABEL: Kd (nM)

[
  {
    "BINDER": "IPPPPPLPGVASIPPPPPLPG (also: FITC, position not given here) [FITC-mDia1-derived poly-L-proline (PLP) peptide]",
    "MEASUREMENT_LABEL": "Kd",
    "READOUT_VALUE": 2710
  }
]
